Cited source: patent US20100204182A1

Listed next: entries and their corresponding inhibition at 10 µM.
- target_of_assay: hP2Y12 (Homo sapiens)
- Sequence (Q9H244 whole entry): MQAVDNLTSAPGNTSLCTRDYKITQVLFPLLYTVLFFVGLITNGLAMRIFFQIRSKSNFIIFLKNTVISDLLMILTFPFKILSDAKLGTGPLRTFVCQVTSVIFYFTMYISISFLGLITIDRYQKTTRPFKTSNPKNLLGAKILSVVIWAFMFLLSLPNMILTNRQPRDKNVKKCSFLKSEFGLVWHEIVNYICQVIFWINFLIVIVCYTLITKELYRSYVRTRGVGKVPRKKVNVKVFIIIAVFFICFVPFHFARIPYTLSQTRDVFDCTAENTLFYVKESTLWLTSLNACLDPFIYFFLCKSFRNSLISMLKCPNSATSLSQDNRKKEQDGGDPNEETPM
- protocol_description: Inhibition of [3H]PSB-0413 binding at hP2Y12
- condition_description: mean ± SEM, read-out: hP2Y12 % Inhibition of [^3H]PSB-0413 Binding at 10 μM, n = 3
Report only the number, with the unit % understood.

1) CCOP(=O)(Cc1ccc(NC(=O)CCNC(=O)[C@H]2O[C@@H](n3cnc4c(N)ncnc43)C(O)C2O)cc1)OCC (stereo in doubt) [CC2] = 1
2) CCOP(=O)(OCC)C(NC(=O)CCNC(=O)[C@H]1O[C@@H](n2ccc(=O)[nH]c2=O)C(O)C1O)P(=O)(OCC)OCC (stereo in doubt) [Compound 11] = 1

Here is the next item to consider.
Note inhibition at 10 µM for the molecule shown: O=C(O)CCC(NC(=O)CCNC(=O)[C@H]1O[C@@H](N2CCC(=O)NC2=O)[C@H](O)[C@@H]1O)C(=O)O (stereo partly drawn) [Compound 14]
6
